procedure details: in vivo
Design: species or system male CD-1 mice
experimental setup: male, CD-1, mouse, iv, 1 mg/kg
Bridge positions count the residues as written; N and C are the ends. Square brackets hold non-standard residues; d marks the D form. Peptide text beside a SMILES is read from it. * marks the point of attachment. Lauroyl = CCCCCCCCCCCC(=O)*; Dab = NCC[C@H](N)C(=O)O
value kind: level at 8 h (ng/mL)
Output spec: scalar in ng/mL, unitless text.

[Q] I have this compound here, CCCCCCCCCCCC(=O)NCCCC[C@@H]1NC(=O)[C@H](Cc2ccc(O)cc2)NC(=O)[C@@H]2CSSC[C@H](NC(=O)[C@H](C)NC(=O)[C@H](Cc3c[nH]cn3)NC(=O)[C@H](Cc3ccc(O)cc3)NC(=O)[C@@H]3CCCN3C(=O)[C@H]3CCCN3C(=O)[C@H](CCCCN)NC1=O)C(=O)N[C@@H](CCCNC(=N)N)C(=O)N[C@@H](C)C(=O)N1CCC[C@@H]1C(=O)N[C@@H](CCN)C(=O)N[C@@H](CCCNC(=N)N)C(=O)N[C@@H](Cc1ccc(O)cc1)C(=O)N2 [Ex. 17] (cyclo(YHACRA[dP][Dab]RYCYK(Lauroyl)K[dP]P); disulfide 4-11) , and I need its recorded level at 8 h.
[A] 15
